Target: CYP 3A4 (Homo sapiens, UniProt P08684)
Sequence (P08684 whole entry, species assumed): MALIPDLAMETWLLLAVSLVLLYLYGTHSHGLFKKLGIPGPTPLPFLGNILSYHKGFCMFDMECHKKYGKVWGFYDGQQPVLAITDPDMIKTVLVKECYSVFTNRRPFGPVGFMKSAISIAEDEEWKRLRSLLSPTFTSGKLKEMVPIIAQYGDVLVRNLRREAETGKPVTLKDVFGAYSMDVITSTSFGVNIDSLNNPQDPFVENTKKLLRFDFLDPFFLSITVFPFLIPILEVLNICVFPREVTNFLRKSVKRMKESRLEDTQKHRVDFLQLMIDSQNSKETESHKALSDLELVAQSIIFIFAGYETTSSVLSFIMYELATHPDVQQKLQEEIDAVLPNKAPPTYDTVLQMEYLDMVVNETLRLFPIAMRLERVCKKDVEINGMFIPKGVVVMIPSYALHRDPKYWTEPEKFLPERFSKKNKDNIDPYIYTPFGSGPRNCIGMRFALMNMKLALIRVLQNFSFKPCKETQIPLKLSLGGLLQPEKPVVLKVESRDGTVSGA
Experiment: Inhibition of CYP 3A4
Format: in vitro ADME
Settings: 20 min exposure
For each of the compounds below, state its IC50.

Take a look at these entries with their results.
compound smiles | IC50
COc1nc2ccc(Br)cc2cc1[C@@H](c1cccnc1N(C)C)[C@@](O)(CCN(C)C)c1cccc(F)c1 | > 50 µM
COc1nc2ccc(Br)cc2cc1[C@@H](c1ccnc(OC)c1OC)[C@@](O)(CCN(C)C)c1cccc(OC(F)F)c1 | > 10 µM
COc1nc2ccc(Br)cc2cc1[C@@H](c1ccnc(OC)c1OC)[C@@](O)(CCN(C)C)c1cccc(C)c1 | > 10 µM
COc1nc2ccc(Br)cc2cc1[C@@H](c1ccnc(OC)c1OC)[C@@](O)(CCN(C)C)c1cccc(C#N)c1 | > 10 µM
CCSc1ccc([C@H](c2cc3cc(Br)ccc3nc2OC)[C@@](O)(CCN(C)C)c2cccc(F)c2)cn1 | 10 µM

Value sought for every listed compound: IC50.
1. COc1cc([C@H](c2cc3cc(Br)ccc3nc2OC)[C@@](O)(CCN(C)C)c2cccc(F)c2)cnc1OC
2. COc1nc2ccc(Br)cc2cc1[C@@H](c1cc(C)c(C)s1)[C@@](O)(CCN(C)C)c1cccc(F)c1
3. COc1nc2ccc(Br)cc2cc1[C@@H](c1cncc(C)c1)[C@@](O)(CCN(C)C)c1cccc(F)c1
4. COc1nc2ccc(Br)cc2cc1[C@@H](c1ccc(N(C)C)nc1)[C@@](O)(CCN(C)C)c1cccc(F)c1

1. > 10 µM
2. 10 µM
3. 4.6 µM
4. > 10 µM
